Study Target: BCL-2 (binding to BAD peptide) (Homo sapiens, UniProt P10415)
Sequence (P10415 whole entry): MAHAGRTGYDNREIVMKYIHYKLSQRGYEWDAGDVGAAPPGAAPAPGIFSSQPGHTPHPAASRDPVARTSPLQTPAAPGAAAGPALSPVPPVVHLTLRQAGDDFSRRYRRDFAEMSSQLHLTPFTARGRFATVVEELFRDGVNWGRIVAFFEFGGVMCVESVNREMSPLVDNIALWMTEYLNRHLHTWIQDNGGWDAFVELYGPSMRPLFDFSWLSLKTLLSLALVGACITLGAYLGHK
pIC50: −log10 of the molar value.
Collected pIC50 values appear next to each entry.

Reference set, count: 6
[
  {
    "Compound": "CCCCN(CCCC)C(=O)c1cc(C)n(-c2ccc(NC(=O)CC(CC(=O)O)c3ccccc3)cc2C(=O)N2Cc3ccccc3C[C@H]2CO)n1 (stereo partly drawn)",
    "pIC50": "6.90 to 6.92"
  },
  {
    "Compound": "CCCCN(CCCC)C(=O)c1cc(C)n(-c2ccc(NC(=O)C(CCNC(C)=O)c3ccccc3)cc2C(=O)C2Cc3ccccc3C[C@H]2CO)n1 (stereo partly drawn)",
    "pIC50": 7.02
  },
  {
    "Compound": "CCCCN(CCCC)C(=O)c1cc(C)n(-c2ccc(NC(=O)c3oc(-c4ccccc4)nc3C)cc2C(=O)N2Cc3ccccc3C[C@H]2CO)n1",
    "pIC50": "6.12 to 6.20"
  },
  {
    "Compound": "CCCCN(CCCC)C(=O)c1cc(C)n(-c2ccc(NC(=O)CC3CCCCC3)cc2C(=O)N2Cc3ccccc3C[C@H]2CO)n1",
    "pIC50": "6.53 to 6.58"
  },
  {
    "Compound": "CCCCN(CCCC)C(=O)c1cc(C)n(-c2ccc(NC(=O)C(Cc3ccccc3)C(=O)O)cc2C(=O)N2Cc3ccccc3C[C@H]2CO)n1 (stereo partly drawn)",
    "pIC50": 7.17
  },
  {
    "Compound": "CCCCN(CCCC)C(=O)c1cc(C)n(-c2ccc(NC(=O)c3nn(-c4ccccc4)c(=O)cc3O)cc2C(=O)N2Cc3ccccc3C[C@H]2CO)n1",
    "pIC50": "7.50 to 7.59"
  }
]

Query string: Item CCCCN(CCCC)C(=O)c1cc(C)n(-c2ccc(NC(=O)C(CCO)c3ccccc3)cc2C(=O)N2Cc3ccccc3C[C@H]2CO)n1 (stereo partly drawn) has what recorded pIC50?
Result string: 6.92 to 6.94

Query string: Item CCCCN(CCCC)C(=O)c1cc(C)n(-c2ccc(NC(=O)C(C)(C)CC(=O)O)cc2C(=O)N2Cc3ccccc3C[C@H]2CO)n1 has what recorded pIC50?
Result string: 6.78 to 6.84

###

Study Target: BCL-2 (binding to BAD peptide) (Homo sapiens)
Collected IC50 values appear next to each entry.

Reference set, count: 2
[
  {
    "Compound": "CCCCN(CCCC)C(=O)c1cc(C)n(-c2ccc(NC(=O)Cc3ccc(O)cc3)cc2C(=O)N2Cc3ccccc3C[C@H]2CO)n1 [Example 157]",
    "IC50": "80.3 to 93.4 nM"
  },
  {
    "Compound": "CCCCN(CCCC)C(=O)c1cc(C)n(-c2ccc(NC(=O)CCc3c[nH]c4c(Cl)cccc34)cc2C(=O)N2Cc3ccccc3C[C@H]2CO)n1 [Example 124]",
    "IC50": "254 to 260 nM"
  }
]

Query string: Look up IC50 with BCL-2 (binding to BAD peptide) (Homo sapiens) for this compound: CCCCN(CCCC)C(=O)c1cc(C)n(-c2ccc(NC(=O)c3cc(SC)ccc3Cl)cc2C(=O)N2Cc3ccccc3C[C@H]2CO)n1 [Example 89]
Result string: 282 to 288 nM
